The reported measurements were obtained from patent US9206432B2.

- Tested on: lacZ under control of the tetA promoter (PtetA) in E. coli KM3
- Assay type: cell-based
- CONDITIONS: Table 6, reverse repressor hits; sulfometuron, same plate assay format (20 ppm)
REPORTED PROPERTY: relative β-galactosidase activity, inducer Sm

[
  {
    "MOLECULE": "L1-41: library L1 hit with reverse repressor activity (SEQ ID NO: 1206-1213) (protein, rSuR L1-41) MGSRLDKSKVINSALELLNEVGIEGLTTRKLAQKLGVEQPTLYWHVKNKRALLDALAIEMLDRNQTHFCPLEGESWQDFLRNNAKSWRCALLSHRDGAKVMLGTRNTEKQYETAENGLAFLCQQGFSLENALYACRAVWTFTLGCVLDDQETQVAKEERETPTSDSMPPLLRQAMELKDHQGAEPAFLFGLELIICGLEKQLKCESGS",
    "READOUT VALUE": 0.67
  },
  {
    "MOLECULE": "L1-21: library L1 hit with reverse repressor activity (SEQ ID NO: 1206-1213) (protein, rSuR L1-21) MGSRLDKSKVINSALELLNEVGIEGLTTRKLAQKLGVEQPTLYWHVKNKRALLDALAIEMLDRHATHFCPLEGESWQDFLRNNAKSFRCALLSHRDGAKVCLGTAGTEKQYETLENCLAFLCQQGFSLENALYARSAVVCFTLGCVLFDQEMQVAKEERETPTTDSMPPLLRQAAELLDHQGAEPAFLFGLELIICGLEKQLKCESGS",
    "READOUT VALUE": 2.39
  },
  {
    "MOLECULE": "L1-39: library L1 hit with reverse repressor activity (SEQ ID NO: 1206-1213) (protein, rSuR L1-39) MGSRLDKSKVINSALELLNEVGIEGLTTRKLAQKLGVEQPTLYWHVKNKRALLDALAIEMMDRHQTHFCPLEGESWQDFLRNTAKSYRCALLSHRDGAKVILGTRWTEKQYETRENVLAFLCQQGFSLENALYAWAAVGPFTLGCVLRDQERQVAKEERETPTTDSMPPLLRQALELMDHQGAEPAFLFGLELIICGLEKQLKCESGS",
    "READOUT VALUE": 0.91
  },
  {
    "MOLECULE": "L1-34: library L1 hit with reverse repressor activity (SEQ ID NO: 1206-1213) (protein, rSuR L1-34) MGSRLDKSKVINSALELLNEVGIEGLTTRKLAQKLGVEQPTLYWHVKNKRALLDALAIEMADRHNTHFCPLEGESWQDFLRNAARSMRCALLSHRDGAKVYLGTARTEKQYETTENVLAFLCQQGFSLENALYAVRAVPRFTLGCVLLDQERQVAKEERETPTTDSMPPLLRQARELTDHQGAEPAFLFGLELIICGLEKQLKCESGS",
    "READOUT VALUE": 2.00
  }
]
